Recorded values, source patent US20070060636A1.

- ASSAY_METHOD_TEXT: oral bioavailability, hard gelatin capsules, minipig model
- Format: in vivo
- TEST_PARAMETERS: plasma, 40 mg/kg, n=3
READOUT_KIND: Cmax (ng/mL)
Give the quantity in ng/mL, number only.

*Q* Fill in the blank: the reported Cmax of "CCCCCCC(C)(C)c1cc(O)c2c(c1)OC(C)(C)[C@H]1CC=C(CO)C[C@H]21" is ____.
*A* 271

* * *

- ASSAY_METHOD_TEXT: 1st Phase I study, rising single i.v. dose, healthy male volunteers
- Format: in vivo, human
- TEST_PARAMETERS: male, human, plasma, iv; 48 mg single i.v. infusion, healthy volunteers, mean ± SE, up to 24 hr
- Method: Pharmacokinetic parameters were estimated by a non-compartmental method using WinNonlin Professional version 3.2 (Pharsight Corp., Mountain View, Calif.). […] The terminal slope (X) was estimated by linear regression through the last time points and used to calculate the terminal half-life (t1/2) from the following equation: t1/2=0.693/λ The area under the curve from time of dosing through the last time point (AUCz) was calculated by the linear trapezoid method. […]
READOUT_KIND: Cmax (ng/mL)
Give the quantity in ng/mL, number only.

*Q* Fill in the blank: the reported Cmax of CCCCCCC(C)(C)c1cc(O)c2c(c1)OC(C)(C)[C@H]1CC=C(CO)C[C@H]21 [dexanabinol] is ____.
*A* 1860

* * *

- ASSAY_METHOD_TEXT: 14-day multiple dose pharmacokinetic/toxicity study, rabbit
- Type: in vivo, rabbits
- TEST_PARAMETERS: both sexes, plasma, iv; rabbit male & female, 25 mg/kg i.v. daily, final dose Day 14 (NOAEL)
READOUT_KIND: Cmax

*Q* Fill in the blank: the reported Cmax of "CCCCCCC(C)(C)c1cc(O)c2c(c1)OC(C)(C)[C@H]1CC=C(CO)C[C@H]21" is ____.
*A* 132 µg/mL

* * *

- ASSAY_METHOD_TEXT: 1st Phase I study, rising single i.v. dose, healthy male volunteers
- Format: in vivo, human
- TEST_PARAMETERS: male, human, plasma, iv; 48 mg single i.v. infusion, healthy volunteers, mean ± SE
- Method: Pharmacokinetic parameters were estimated by a non-compartmental method using WinNonlin Professional version 3.2 (Pharsight Corp., Mountain View, Calif.). […] The terminal slope (X) was estimated by linear regression through the last time points and used to calculate the terminal half-life (t1/2) from the following equation: t1/2=0.693/λ The area under the curve from time of dosing through the last time point (AUCz) was calculated by the linear trapezoid method. […]
READOUT_KIND: MRT (h)
Give the quantity in h, number only.

*Q* Fill in the blank: the reported MRT of "CCCCCCC(C)(C)c1cc(O)c2c(c1)OC(C)(C)[C@H]1CC=C(CO)C[C@H]21" is ____.
*A* 3.1

* * *

- ASSAY_METHOD_TEXT: 14-day multiple dose pharmacokinetic/toxicity study, rat
- Format: in vivo, rats
- TEST_PARAMETERS: rat, in vivo, iv; 14-day multiple dose i.v.
READOUT_KIND: NOAEL at 14 days (mg/kg/day)
Give the quantity in mg/kg/day, number only.

*Q* Fill in the blank: the reported NOAEL at 14 days of CCCCCCC(C)(C)c1cc(O)c2c(c1)OC(C)(C)[C@H]1CC=C(CO)C[C@H]21 [dexanabinol] is ____.
*A* 15

* * *

- ASSAY_METHOD_TEXT: single dose toxicity and pharmacokinetics, rat
- Assay type: in vivo, Sprague Dawley rats
- TEST_PARAMETERS: Sprague Dawley, plasma, iv; rat female, single i.v. 50 mg/kg (NOAEL)
READOUT_KIND: Cmax (ng/mL)
Give the quantity in ng/mL, number only.

*Q* Fill in the blank: the reported Cmax of CCCCCCC(C)(C)c1cc(O)c2c(c1)OC(C)(C)[C@H]1CC=C(CO)C[C@H]21 [dexanabinol] is ____.
*A* 38800

* * *

- ASSAY_METHOD_TEXT: 2nd Phase I study, single i.v. dose 48 or 150 mg, healthy male volunteers
- Format: in vivo, human
- TEST_PARAMETERS: male, human, plasma, intravenous; after the 48 mg dose (0.63 mg/kg); read-out: Maximum plasma concentrations (Cmax)
READOUT_KIND: Cmax (ng/mL)
Give the quantity in ng/mL, number only.

*Q* Fill in the blank: the reported Cmax of "CCCCCCC(C)(C)c1cc(O)c2c(c1)OC(C)(C)[C@H]1CC=C(CO)C[C@H]21" is ____.
*A* 1230

* * *

- ASSAY_METHOD_TEXT: oral bioavailability, hard gelatin capsules, minipig model
- Type: in vivo
- TEST_PARAMETERS: plasma, 40 mg/kg, n=3
READOUT_KIND: half-life (h)
Give the quantity in h, number only.

*Q* Fill in the blank: the reported half-life of CCCCCCC(C)(C)c1cc(O)c2c(c1)OC(C)(C)[C@H]1CC=C(CO)C[C@H]21 [dexanabinol] is ____.
*A* 7.47

* * *

- ASSAY_METHOD_TEXT: 1st Phase I study, rising single i.v. dose, healthy male volunteers
- Type: in vivo, human
- TEST_PARAMETERS: male, human, plasma, iv, 100 mg, 100 mg single i.v. infusion, healthy volunteers, mean ± SE; read-out: t1/2 (converted)
READOUT_KIND: half-life (h)
Give the quantity in h, number only.

*Q* Fill in the blank: the reported half-life of "CCCCCCC(C)(C)c1cc(O)c2c(c1)OC(C)(C)[C@H]1CC=C(CO)C[C@H]21" is ____.
*A* 6.1

* * *

- ASSAY_METHOD_TEXT: 1st Phase I study, rising single i.v. dose, healthy male volunteers
- Assay type: in vivo, human
- TEST_PARAMETERS: male, human, plasma, iv; 100 mg single i.v. infusion, healthy volunteers, mean ± SE, up to 24 hr
READOUT_KIND: AUC(0-inf)

*Q* Fill in the blank: the reported AUC(0-inf) of CCCCCCC(C)(C)c1cc(O)c2c(c1)OC(C)(C)[C@H]1CC=C(CO)C[C@H]21 [dexanabinol] is ____.
*A* 1220 ng·h/mL

* * *

- ASSAY_METHOD_TEXT: single dose toxicity and pharmacokinetics, rat
- Format: in vivo, Sprague Dawley rats
- TEST_PARAMETERS: Sprague-Dawley, rat, in vivo, iv; single dose i.v.; read-out: no observed adverse effect level (NOAEL)
READOUT_KIND: NOAEL (mg/kg)
Give the quantity in mg/kg, number only.

*Q* Fill in the blank: the reported NOAEL of CCCCCCC(C)(C)c1cc(O)c2c(c1)OC(C)(C)[C@H]1CC=C(CO)C[C@H]21 [dexanabinol] is ____.
*A* 50

* * *

- ASSAY_METHOD_TEXT: Phase II study, single i.v. dose in patients with severe head trauma
- Type: in vivo, human
- TEST_PARAMETERS: human, plasma, iv; 200 mg single i.v. infusion (n = 21), severe TBI patients, mean ± SE, up to 24 hr
READOUT_KIND: Cmax (ng/mL)
Give the quantity in ng/mL, number only.

*Q* Fill in the blank: the reported Cmax of "CCCCCCC(C)(C)c1cc(O)c2c(c1)OC(C)(C)[C@H]1CC=C(CO)C[C@H]21" is ____.
*A* 5790

* * *

- ASSAY_METHOD_TEXT: 1st Phase I study, rising single i.v. dose, healthy male volunteers
- Assay type: in vivo, human
- TEST_PARAMETERS: male, human, plasma, iv, single i.v. infusion 48, 100, 200 mg; read-out: distributional phase half-life
READOUT_KIND: half-life

*Q* Fill in the blank: the reported half-life of CCCCCCC(C)(C)c1cc(O)c2c(c1)OC(C)(C)[C@H]1CC=C(CO)C[C@H]21 [dexanabinol] is ____.
*A* 2 to 3 min

* * *

- ASSAY_METHOD_TEXT: 2nd Phase I study, single i.v. dose 48 or 150 mg, healthy male volunteers
- Type: in vivo, human
- TEST_PARAMETERS: male, human, plasma, iv; 150 mg single i.v. infusion, healthy volunteers, mean ± SE
READOUT_KIND: MRT (h)
Give the quantity in h, number only.

*Q* Fill in the blank: the reported MRT of "CCCCCCC(C)(C)c1cc(O)c2c(c1)OC(C)(C)[C@H]1CC=C(CO)C[C@H]21" is ____.
*A* 6.9

* * *

- ASSAY_METHOD_TEXT: 1st Phase I study, rising single i.v. dose, healthy male volunteers
- Type: in vivo, human
- TEST_PARAMETERS: male, human, plasma, iv; 48 mg single i.v. infusion, healthy volunteers, mean ± SE; read-out: Vss
READOUT_KIND: Vd

*Q* Fill in the blank: the reported Vd of "CCCCCCC(C)(C)c1cc(O)c2c(c1)OC(C)(C)[C@H]1CC=C(CO)C[C@H]21" is ____.
*A* 2.8 L/kg
